Assay: Plasma pharmacokinetics in monkeys (extended single-dose and repeated-dose study)
Assay type: in vivo
Conditions: monkey, iv, male monkeys, 10 mg/kg-dose group, extended single-dose study and repeated-dose study (first day), average
ENDPOINT_LABEL: Cmax

Enquiry: Would you mind telling me what Cmax value was observed for CC(C)=CCC/C(C)=C/CC[C@]1(C)Oc2c(c(O)cc3c2CN(CCC[C@@H](C(=O)O)N2Cc4c(cc(O)c5c4O[C@@](C)(CC/C=C(\C)CCC=C(C)C)[C@@H](O)C5)C2=O)C3=O)C[C@@H]1O ?
Return: 45.8 to 58.6 µg/mL

* * *

Assay: Phase II single dose study: pharmacokinetics (plasma TMS-007 concentration)
Format: in vivo, human
Settings: human, plasma, intravenous; patients, 3 mg/kg, 31 minutes after administration; read-out: plasma TMS-007 concentration (mean±standard deviation)
ENDPOINT_LABEL: concentration at 31 min (µg/mL)
State the answer as a number, implicitly in µg/mL.

Enquiry: Would you mind telling me what concentration at 31 min value was observed for CC(C)=CCC/C(C)=C/CC[C@]1(C)Oc2c(c(O)cc3c2CN(CCC[C@@H](C(=O)O)N2Cc4c(cc(O)c5c4O[C@@](C)(CC/C=C(\C)CCC=C(C)C)[C@@H](O)C5)C2=O)C3=O)C[C@@H]1O ?
Return: 29.3

* * *

Assay: Phase I test for healthy persons: pharmacokinetics
Format: in vivo, human
Details: male, human, blood, iv, 0.25 mg/kg single i.v. over 31 minutes
ENDPOINT_LABEL: Cmax
Quote the value and follow it with the unit of measurement.

Enquiry: Would you mind telling me what Cmax value was observed for CC(C)=CCC/C(C)=C/CC[C@]1(C)Oc2c(c(O)cc3c2CN(CCC[C@@H](C(=O)O)N2Cc4c(cc(O)c5c4O[C@@](C)(CC/C=C(\C)CCC=C(C)C)[C@@H](O)C5)C2=O)C3=O)C[C@@H]1O [TMS-007] ?
Return: 1860 ng/mL

* * *

Assay: Phase II single dose study: pharmacokinetics (plasma TMS-007 concentration)
Type: in vivo, human
Settings: human, plasma, intravenous; patients, 6 mg/kg, 31 minutes after administration; read-out: plasma TMS-007 concentration (mean±standard deviation)
ENDPOINT_LABEL: concentration at 31 min

Enquiry: Would you mind telling me what concentration at 31 min value was observed for CC(C)=CCC/C(C)=C/CC[C@]1(C)Oc2c(c(O)cc3c2CN(CCC[C@@H](C(=O)O)N2Cc4c(cc(O)c5c4O[C@@](C)(CC/C=C(\C)CCC=C(C)C)[C@@H](O)C5)C2=O)C3=O)C[C@@H]1O ?
Return: 52.2 µg/mL

* * *

Test: Phase II single dose study: pharmacokinetics (plasma TMS-007 concentration)
Format: in vivo, human
Details: human, plasma, intravenous; patients, 1 mg/kg, 31 minutes after administration; read-out: plasma TMS-007 concentration (mean±standard deviation)
ENDPOINT_LABEL: concentration at 31 min (ng/mL)
State the answer as a number, implicitly in ng/mL.

Enquiry: Would you mind telling me what concentration at 31 min value was observed for CC(C)=CCC/C(C)=C/CC[C@]1(C)Oc2c(c(O)cc3c2CN(CCC[C@@H](C(=O)O)N2Cc4c(cc(O)c5c4O[C@@](C)(CC/C=C(\C)CCC=C(C)C)[C@@H](O)C5)C2=O)C3=O)C[C@@H]1O ?
Return: 7290

* * *

Assay: Phase I test for healthy persons: pharmacokinetics
Format: in vivo, human
Settings: male, human, blood, iv, 6 mg/kg single i.v. over 31 minutes, read-out: AUC0-24 (converted)
ENDPOINT_LABEL: AUC(0-t) (ng·h/mL)
State the answer as a number, implicitly in ng·h/mL.

Enquiry: Would you mind telling me what AUC(0-t) value was observed for CC(C)=CCC/C(C)=C/CC[C@]1(C)Oc2c(c(O)cc3c2CN(CCC[C@@H](C(=O)O)N2Cc4c(cc(O)c5c4O[C@@](C)(CC/C=C(\C)CCC=C(C)C)[C@@H](O)C5)C2=O)C3=O)C[C@@H]1O [TMS-007] ?
Return: 38800

* * *

Assay: Phase II single dose study: pharmacokinetics (plasma TMS-007 concentration)
Format: in vivo, human
Conditions: human, plasma, intravenous; patients, 1 mg/kg, 2 hours after the administration; read-out: plasma TMS-007 concentration (mean±standard deviation)
ENDPOINT_LABEL: concentration at 2 h (µg/mL)
State the answer as a number, implicitly in µg/mL.

Enquiry: Would you mind telling me what concentration at 2 h value was observed for CC(C)=CCC/C(C)=C/CC[C@]1(C)Oc2c(c(O)cc3c2CN(CCC[C@@H](C(=O)O)N2Cc4c(cc(O)c5c4O[C@@](C)(CC/C=C(\C)CCC=C(C)C)[C@@H](O)C5)C2=O)C3=O)C[C@@H]1O [TMS-007] ?
Return: 0.138

* * *

Experiment: Plasma pharmacokinetics in rats (repeated-dose study)
Type: in vivo
Details: rat, iv, male rats, 12 mg/kg-dose group, initial day of repeated-dose study, average
Method: Rats (12 males and 12 females) under neither anesthesia nor unrestrained condition were repeatedly and intravenously given TMS-007 (preparation of a sodium-salt thereof) at a dose of 2.4, 12 and 60 mg/kg (continuously over 30 minutes) once daily for two weeks. The day after completion of repeated administration, the rats were subjected to autopsy. As a result, NOAEL of the toxicity test of rats by repeated administration was determined to be 60 mg/kg or more. […]
ENDPOINT_LABEL: Cmax
Quote the value and follow it with the unit of measurement.

Enquiry: Would you mind telling me what Cmax value was observed for CC(C)=CCC/C(C)=C/CC[C@]1(C)Oc2c(c(O)cc3c2CN(CCC[C@@H](C(=O)O)N2Cc4c(cc(O)c5c4O[C@@](C)(CC/C=C(\C)CCC=C(C)C)[C@@H](O)C5)C2=O)C3=O)C[C@@H]1O ?
Return: 20200 ng/mL

* * *

Test: Toxicity test by two-week repeated administration to cynomolgus monkeys
Settings: both sexes, cynomolgus monkey, in vivo, male and female, intravenous over 30 minutes once daily for two weeks, 3, 10 and 30 mg/kg
ENDPOINT_LABEL: NOAEL at 2 weeks

Enquiry: Would you mind telling me what NOAEL at 2 weeks value was observed for CC(C)=CCC/C(C)=C/CC[C@]1(C)Oc2c(c(O)cc3c2CN(CCC[C@@H](C(=O)O)N2Cc4c(cc(O)c5c4O[C@@](C)(CC/C=C(\C)CCC=C(C)C)[C@@H](O)C5)C2=O)C3=O)C[C@@H]1O ?
Return: ≥ 10 mg/kg
